# Tested on: mitochondrial respiration
# assay.comment: Inhibition of mitochondrial respiration (rate of reduction of cytochrome c in isolated mitochondria), phytopathogenic fungus
# Assay type: biochemical, Drechslera sorokiniana
# study.conditions: DMSO control
Please provide measured % inhibition of respiration at 1.8 × 10^-5 mol/l test substance, Drechslera sorokiniana for the entries that follow.
Numbers only, in %.

Give one value of % inhibition of respiration at 1.8 × 10^-5 mol/l test substance, Drechslera sorokiniana per listed molecule.
1. COC(=O)/C=C(/OC)c1ccccc1/C=C/c1ccc(Oc2ccccc2)cc1
2. COC(=O)/C=C(/OC)c1ccccc1/C=C/c1ccoc1
3. COC(=O)/C=C(/OC)c1ccccc1/C=C/c1ccc(-c2ccccc2)cc1
4. COC(=O)/C=C(/OC)c1ccccc1/C=C/c1ccccc1C(F)(F)F
5. COC(=O)/C=C(/OC)c1ccccc1COc1ccc(C(C)=NOCC(C)C)cc1C
6. CO/N=C(\C)c1ccc(OCc2ccccc2/C(=C\C(=O)OC)OC)c(C)c1
7. O=C(C=C(c1ccccc1)c1ccccc1)N1CCOCC1 [A, morpholide of β-phenylcinnamic acid, reference compound]

Result:
96
79
97
94
99
100
0

Taken from patent US5573999A.
